Test system: Pseudomonas aeruginosa
test_name: Antibacterial activity against Pseudomonas aeruginosa at 200 ug/ml after 24 hr by disk diffusion method
Type: functional
settings: read-out: DIZ
Recorded zone of inhibition at 200 µg/mL for the following molecules

| molecule_smiles | zone of inhibition at 200 µg/mL (mm) |
| --- | --- |
| O=C1NC(c2ccccc2)(c2ccccc2)C(=O)N1CN1CCOCC1 | 14 |
| O=C1N(c2ccccc2)C(=O)C(c2ccccc2)(c2ccccc2)N1Cn1cnc2ccccc21 | 12 |
| O=C1NC(c2ccccc2)(c2ccccc2)C(=O)N1CNc1nccs1 | 20 |
| O=C1N(c2ccccc2)C(=O)C(c2ccccc2)(c2ccccc2)N1CN1CCOCC1 | 11 |
| O=C1N(c2ccccc2)C(=O)C(c2ccccc2)(c2ccccc2)N1CNc1nccs1 | 18 |
| CCN(CC)CN1C(=O)NC(c2ccccc2)(c2ccccc2)C1=O | 14 |
| CCN(CC)CN1C(=O)N(c2ccccc2)C(=O)C1(c1ccccc1)c1ccccc1 | 14 |
| CN(C)CN1C(=O)N(c2ccccc2)C(=O)C1(c1ccccc1)c1ccccc1 | 14 |
| O=C1c2ccccc2C(=O)N1CN1C(=O)N(c2ccccc2)C(=O)C1(c1ccccc1)c1ccccc1 | 10 |
| O=C1N(c2ccccc2)C(=O)C(c2ccccc2)(c2ccccc2)N1Cn1nnc2ccccc21 | 12 |
| O=C1NC(c2ccccc2)(c2ccccc2)C(=O)N1CNc1nc2ccccc2s1 | 20 |
| O=C1NC(c2ccccc2)(c2ccccc2)C(=O)N1Cn1cnc2ccccc21 | 14 |
| O=C1NC(c2ccccc2)(c2ccccc2)C(=O)N1Cn1ccnc1 | 20 |
